The reader will find reported inhibition values listed item by item below.
Target: Cholinesterase (Equus caballus)
Experiment: Inhibition of horse serum BChE at 10 uM pretreated for 20 mins followed by butyrylthiocholine iodide substrate addition measured for 5 mins by Ellman's method relative to control

chemical structure	inhibition [%]
O=C1NCCCc2c1c1ccccc1n2CCCc1ccccc1	20
CN1CCCc2c(c3ccccc3n2CCc2ccccc2)C1=O	10
O=C1CCCc2c(c3ccccc3n2CCc2ccccc2)N1	25
O=C1NCCCc2c1c1ccccc1n2Cc1ccccc1	25
O/N=C1\CCCc2c1c1ccccc1n2CCc1ccccc1	5

====

Biological target: Cholinesterase (Equus caballus)
Test: Competitive inhibition of horse serum BChE in presence of varying levels of butyrylthiocholine iodide substrate by Lineweaver-burk plot method

chemical structure	system under test	Ki
O=C1NCCCc2c1c1ccccc1n2CCc1cccc(F)c1	Cholinesterase (Equus caballus)	0.7 nM

====

Catalogue of molecules with associated GI50 at 48 h
Experiment: Hepatotoxicity against human HepG2 cells assessed as growth inhibition measured after 48 hrs by MTT assay
Assay type: toxicity, cell-based
reported endpoint: GI50 at 48 h (µM)

molecule	data value
O=C1NCCCc2c1c1ccccc1n2CCc1cccc(F)c1	159
O=C1NCCCc2c1c1ccccc1n2CCc1ccc(F)cc1	230
Cl.c1ccc(CCn2c3c(c4ccccc42)CNCCC3)cc1	25
O=C1NCCCc2c1c1ccccc1n2CCc1ccccc1	120
O=c1[nH]cc(F)c(=O)[nH]1 [FLUOROURACIL]	7

====

Biological target: Cholinesterase (Equus caballus, UniProt P81908)
Sequence (P81908 whole entry): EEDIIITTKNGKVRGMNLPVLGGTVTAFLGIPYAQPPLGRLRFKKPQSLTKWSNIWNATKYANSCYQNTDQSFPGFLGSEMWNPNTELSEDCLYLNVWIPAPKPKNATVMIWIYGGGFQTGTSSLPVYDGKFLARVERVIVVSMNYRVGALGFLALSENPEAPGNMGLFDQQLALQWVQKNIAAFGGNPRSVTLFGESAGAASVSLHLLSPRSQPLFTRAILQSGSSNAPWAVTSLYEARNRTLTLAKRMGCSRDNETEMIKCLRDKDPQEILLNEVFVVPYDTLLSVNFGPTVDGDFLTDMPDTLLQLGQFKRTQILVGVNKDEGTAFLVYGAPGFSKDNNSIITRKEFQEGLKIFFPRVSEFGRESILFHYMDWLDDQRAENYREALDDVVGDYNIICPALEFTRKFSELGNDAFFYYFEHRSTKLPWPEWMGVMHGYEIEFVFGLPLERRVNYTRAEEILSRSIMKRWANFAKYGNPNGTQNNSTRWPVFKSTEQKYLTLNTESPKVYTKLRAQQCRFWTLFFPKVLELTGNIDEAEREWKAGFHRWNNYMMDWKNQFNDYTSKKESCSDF
Test: Inhibition of horse serum BChE pretreated for 20 mins followed by butyrylthiocholine iodide substrate addition measured for 5 mins by Ellman's method
Classes (IC50): bottom bin = under 0.2 µM, middle bin = from 0.2 µM up to 10 µM, top bin = 10 µM and over

chemical structure	assigned class
CC(C)CCn1c2c(c3ccccc31)C(=O)NCCC2	top bin
Cl.c1ccc(CCn2c3c(c4ccccc42)CNCCC3)cc1	middle bin
O=C1NCCCc2c1c1ccccc1n2CCc1ccccc1	bottom bin
CCOC(=O)CCCn1c2c(c3ccccc31)C(=O)NCCC2	top bin
CCOC(=O)NCCCn1c2c(c3ccccc31)C(=O)NCCC2	top bin
O=C1NCCCc2c1c1cc(F)ccc1n2CCc1ccccc1	bottom bin
O=C1NCCCc2c1c1ccccc1n2CCc1ccc(F)cc1	middle bin
CCCNC(=O)c1cn(CCc2ccccc2)c2ccccc12	top bin
O=C1NCCCc2c1c1ccccc1n2CCc1cccc(F)c1	bottom bin
O=C1NCCCc2c1c1ccccc1n2CCc1cccc(Cl)c1	bottom bin
Cc1ccc(CCn2c3c(c4ccccc42)C(=O)NCCC3)cc1	top bin
CC(=O)OCCCCn1c2c(c3ccccc31)C(=O)NCCC2	top bin
O=C1NCCCc2c1c1ccccc1n2CCc1ccc(Cl)cc1	middle bin

====

Endpoint: IC50. System: Acetylcholinesterase (Electrophorus electricus, UniProt O42275). Items follow.
Sequence (O42275 whole entry): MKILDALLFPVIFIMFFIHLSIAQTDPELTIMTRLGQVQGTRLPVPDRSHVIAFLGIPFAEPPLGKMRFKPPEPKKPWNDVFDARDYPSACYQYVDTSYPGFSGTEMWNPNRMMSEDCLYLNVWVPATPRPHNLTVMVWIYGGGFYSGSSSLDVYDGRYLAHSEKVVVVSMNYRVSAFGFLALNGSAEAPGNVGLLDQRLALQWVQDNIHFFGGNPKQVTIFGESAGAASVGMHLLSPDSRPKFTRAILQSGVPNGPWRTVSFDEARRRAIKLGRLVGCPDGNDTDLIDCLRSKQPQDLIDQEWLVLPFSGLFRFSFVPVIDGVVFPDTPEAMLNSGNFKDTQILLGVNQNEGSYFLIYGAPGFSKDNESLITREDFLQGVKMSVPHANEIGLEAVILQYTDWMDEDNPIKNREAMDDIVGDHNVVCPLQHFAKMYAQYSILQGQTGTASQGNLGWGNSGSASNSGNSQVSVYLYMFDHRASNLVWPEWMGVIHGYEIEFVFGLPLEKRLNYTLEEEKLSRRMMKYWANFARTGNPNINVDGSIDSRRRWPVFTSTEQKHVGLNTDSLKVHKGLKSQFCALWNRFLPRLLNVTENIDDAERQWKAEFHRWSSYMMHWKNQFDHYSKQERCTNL
reported endpoint: IC50 (µM)

chemical structure	reported endpoint	unit spec	data value
CN1CCCc2c(c3ccccc3n2CCc2ccccc2)C1=O	IC50	µM	44.8
CCOC(=O)NCCCn1c2c(c3ccccc31)C(=O)NCCC2	IC50	µM	110
CCCNC(=O)c1cn(CCc2ccccc2)c2ccccc12	IC50	µM	10.3
O=C1NCCCc2c1c1ccccc1n2CCc1ccccc1	IC50	µM	20
O=C1CCCc2c1c1ccccc1n2CCc1ccccc1	IC50	µM	10
CC(C)CCn1c2c(c3ccccc31)C(=O)NCCC2	IC50	µM	100
CCOC(=O)CCCn1c2c(c3ccccc31)C(=O)NCCC2	IC50	µM	60

====

Experiment: Neurotoxicity against human U87 cells assessed as growth inhibition measured after 48 hrs by MTT assay
Assay type: toxicity, cell-based, U-87MG ATCC
# GI50 at 48 h per record follows
reported endpoint: GI50 at 48 h (µM)

compound	reported endpoint	bound operator	data value
O=C1NCCCc2c1c1ccccc1n2CCc1ccc(F)cc1	GI50 at 48 h	>	500
O=C1NCCCc2c1c1ccccc1n2CCc1ccccc1	GI50 at 48 h	=	288
O=c1[nH]cc(F)c(=O)[nH]1 [FLUOROURACIL]	GI50 at 48 h	=	13
O=C1NCCCc2c1c1ccccc1n2CCc1cccc(F)c1	GI50 at 48 h	=	162
Cl.c1ccc(CCn2c3c(c4ccccc42)CNCCC3)cc1	GI50 at 48 h	=	41

====

Test: Neurotoxicity against human SH-SY5Y cells assessed as growth inhibition measured after 48 hrs by MTT assay
Assay type: toxicity, cell-based
Details: SH-SY5Y cells
reported endpoint: GI50 at 48 h (µM)

molecule	data value
Cl.c1ccc(CCn2c3c(c4ccccc42)CNCCC3)cc1	5.6
CC12CC3CC(C)(C1)CC(N)(C3)C2 [MEMANTINE]	145
O=C1NCCCc2c1c1ccccc1n2CCc1ccccc1	138
O=C1NCCCc2c1c1ccccc1n2CCc1cccc(F)c1	2.61
O=C1NCCCc2c1c1ccccc1n2CCc1ccc(F)cc1	251

====

Test: Cytotoxicity against human MCF7 cells assessed as growth inhibition measured after 48 hrs by MTT assay
Format: toxicity, cell-based

chemical structure	bound operator	GI50 at 48 h / µM
O=C1NCCCc2c1c1ccccc1n2CCc1ccccc1	=	170
O=c1[nH]cc(F)c(=O)[nH]1	=	4.5
O=C1NCCCc2c1c1ccccc1n2CCc1ccc(F)cc1	>	500
Cl.c1ccc(CCn2c3c(c4ccccc42)CNCCC3)cc1	=	28
O=C1NCCCc2c1c1ccccc1n2CCc1cccc(F)c1	=	162

====

Test: Neurotoxicity against human SH-SY5Y cells assessed as growth inhibition measured after 48 hrs by MTT assay
Format: toxicity, cell-based
Conditions: sh-sy5y, 48 h
reported endpoint: growth inhibition (GI)

molecule	data value
Cl.c1ccc(CCn2c3c(c4ccccc42)CNCCC3)cc1	Dose-dependent effect
O=C1NCCCc2c1c1ccccc1n2CCc1ccc(F)cc1	Dose-dependent effect
CC12CC3CC(C)(C1)CC(N)(C3)C2 [MEMANTINE]	Dose-dependent effect
O=C1NCCCc2c1c1ccccc1n2CCc1cccc(F)c1	Dose-dependent effect
O=C1NCCCc2c1c1ccccc1n2CCc1ccccc1	Dose-dependent effect

====

This document collects IC50 values reported for Cholinesterase (Homo sapiens).

chemical structure	IC50
O=C1NCCCc2c1c1ccccc1n2CCc1cccc(F)c1	1.8 nM
O=C1NCCCc2c1c1ccccc1n2CCc1ccccc1	13 nM
O=C1NCCCc2c1c1ccccc1n2CCc1ccc(F)cc1	5000 nM
